# Test system: Rabbit Cornea Esterase
# measurement-protocol: Rabbit Cornea Homogenate Stability Assay (Rabbit Cornea Esterase Assay)
# Assay type: in vitro ADME
# particulars: rabbit cornea homogenate 0.15 mg/mL total protein; NZW; 37° C.
assay-endpoint: Esterase (0.15 mg/mL) % parent released after 45 min

CC(OC(=O)CCCC[C@@H]1CCSS1)n1ccc2c(-c3cnn([C@H](CC#N)C4CCCC4)c3)ncnc21 (stereo partly drawn) ... B (NZW) (25% to 50%)
C=CC(=O)N1C[C@H](Nc2ncnc3c2ccn3C(=O)OC(C)C)CC[C@@H]1C ... A (NZW) (<25%)
C=CC(=O)N1C[C@H](Nc2ncnc3c2ccn3COC(=O)CCCC[C@@H]2CCSS2)CC[C@@H]1C ... B (NZW) (25% to 50%)
C=CC(=O)N1C[C@H](Nc2ncnc3c2ccn3C(C)OC(=O)OC(C)C)CC[C@@H]1C (stereo partly drawn) ... D (NZW) (>75%)
CC(C)C(=O)OC(C)n1ccc2c(-c3cnn([C@H](CC#N)C4CCCC4)c3)ncnc21 (stereo partly drawn) ... A (NZW) (<25%)
N#CC[C@@H](C1CCCC1)n1cc(-c2ncnc3c2ccn3C(=O)CCCC[C@@H]2CCSS2)cn1 ... B (NZW) (25% to 50%)
N#CC[C@@H](C1CCCC1)n1cc(-c2ncnc3c2ccn3COC(=O)CCCC[C@@H]2CCSS2)cn1 ... D (NZW) (>75%)

###

# System: Rabbit Cornea Esterase
# measurement-protocol: Rabbit Cornea Homogenate Stability Assay (Rabbit Cornea Esterase Assay)
# Type: in vitro ADME
# particulars: rabbit cornea homogenate 0.45 mg/mL total protein; NZW; 37° C.
assay-endpoint: Esterase (0.45 mg/mL) % parent released after 45 min

N#CC[C@@H](C1CCCC1)n1cc(-c2ncnc3c2ccn3COC(=O)CCCC[C@@H]2CCSS2)cn1 [Compound 40] ... D (NZW) (>75%)
C=CC(=O)N1C[C@H](Nc2ncnc3c2ccn3C(C)OC(=O)OC(C)C)CC[C@@H]1C (some centres unmarked) [Compound 22] ... D (NZW) (>75%)

###

# Test system: Rabbit Cornea Esterase
# measurement-protocol: Rabbit Cornea Homogenate Stability Assay (Rabbit Cornea Esterase Assay)
# Format: in vitro ADME
# particulars: rabbit cornea homogenate 0.45 mg/mL total protein; NZW; 37° C.
assay-endpoint: Esterase (0.45 mg/mL) % parent released after 45 min

CC(OC(=O)CCCC[C@@H]1CCSS1)n1ccc2c(-c3cnn([C@H](CC#N)C4CCCC4)c3)ncnc21 (stereo partly shown) ... C (NZW) (51% to 75%)
N#CC[C@@H](C1CCCC1)n1cc(-c2ncnc3c2ccn3C(=O)CCCC[C@@H]2CCSS2)cn1 ... C (NZW) (51% to 75%)
